experimental.target: HSF1-WT trimer/oligomer (SEC peak 1) (human, UniProt Q00613 1-529)
Sequence (Q00613 whole entry): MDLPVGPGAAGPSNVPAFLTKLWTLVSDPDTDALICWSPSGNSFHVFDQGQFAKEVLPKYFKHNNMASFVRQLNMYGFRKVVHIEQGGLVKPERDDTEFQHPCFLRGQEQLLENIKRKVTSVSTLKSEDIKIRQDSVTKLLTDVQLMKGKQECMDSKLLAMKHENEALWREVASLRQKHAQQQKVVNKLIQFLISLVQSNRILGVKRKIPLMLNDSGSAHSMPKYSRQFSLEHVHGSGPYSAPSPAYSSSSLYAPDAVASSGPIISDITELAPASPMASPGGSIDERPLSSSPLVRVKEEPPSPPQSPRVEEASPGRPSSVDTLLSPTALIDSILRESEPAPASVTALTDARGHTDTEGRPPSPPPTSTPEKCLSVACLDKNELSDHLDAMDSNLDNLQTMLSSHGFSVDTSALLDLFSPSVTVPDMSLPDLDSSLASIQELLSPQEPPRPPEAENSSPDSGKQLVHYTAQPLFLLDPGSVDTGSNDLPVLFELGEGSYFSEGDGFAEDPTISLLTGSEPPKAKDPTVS
assay.protocol: fluorescence polarization
property.name: pKd
Notebook: values listed as pKd are -log10 of the concentration (mol/L).

[Q] Return the recorded pKd value; entry: HSE (canonical three-site) (dsDNA) DNA 1: CCTGGAATATTCCCGAACTGGC DNA 2: GCCAGTTCGGGAATATTCCAGG
[A] 7.77
